- target-under-test: T1, bovine serum albumin (BSA) (bovine, UniProt P02769 25-607)
- T1 construct: Control antigen coated at 1% in PBS (pH 7.4); also called negative control antigen
- T1 sequence (P02769 25-607 limits assumed): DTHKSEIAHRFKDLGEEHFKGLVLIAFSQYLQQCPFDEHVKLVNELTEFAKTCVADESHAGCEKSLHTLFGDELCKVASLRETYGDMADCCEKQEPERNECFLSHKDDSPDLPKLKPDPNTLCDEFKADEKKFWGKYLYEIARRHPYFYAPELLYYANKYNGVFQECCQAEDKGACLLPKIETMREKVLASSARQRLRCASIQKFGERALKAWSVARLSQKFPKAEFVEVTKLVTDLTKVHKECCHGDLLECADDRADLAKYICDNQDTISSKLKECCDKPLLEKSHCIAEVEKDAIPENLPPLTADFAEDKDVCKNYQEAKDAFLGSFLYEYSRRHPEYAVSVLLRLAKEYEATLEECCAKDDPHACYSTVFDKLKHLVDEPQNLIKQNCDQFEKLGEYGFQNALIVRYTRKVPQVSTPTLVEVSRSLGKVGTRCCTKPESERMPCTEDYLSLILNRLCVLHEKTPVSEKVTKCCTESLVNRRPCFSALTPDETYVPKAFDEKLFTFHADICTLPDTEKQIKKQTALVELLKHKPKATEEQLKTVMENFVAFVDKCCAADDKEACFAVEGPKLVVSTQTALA
- experimental-protocol: phage ELISA, BSA coated
measure-name: binding result

[[record]]
binder = "SC06-432 (scFv, Vl 137-246); also called single-chain phage antibody SC06-432) scFv: QLQLQESGPGLVKPSQTLSLTCTVSGGSISSGGYYWSWIRQHPGKGLEWIGYIYYSGSTYYNPSLKSRVTISVDTSKNQFSLKLSSVTAADTAVYYCARERILDRMNDYWGQGTLVTVSSGTGGSGGTGSGTGGSTQSVVTQPPSVSGAPGQRVTISCTGSSSNIGAGYDVHWYQQLPGTAPKLLIYGNSNRPSGVPDRFSGSKSGTSASLAITGLQAEDEADYYCQSSDSSLNILFGGGTKLTVL"
data_value = "no binding"

[[record]]
binder = "SC06-089 (scFv, Vl 140-247); also called single-chain phage antibody SC06-089) scFv: EVQLVETGGGLVQPGGSLRLSCAASGFTFSSYSMNWVRQAPGKGLEWVSFISSSSSTIYYADSVKGRFTIARDNAKNSLYLQMNSLRDEDTAVYYCARPVGTGISLFHAFDIWGQGTMVTVSSGTGGSGGTGSGTGGSTQSVLTQPPSVSVAPGQTARITCGGNNIGSKYVHWYQQKPGQAPVLVVYDDSDRPSGIPERFSGSNSGNTATLTISRVEAGDEADFYCQVWDGSSDPVVFGGGTKLTVL"
data_value = "no binding"

[[record]]
binder = "SC06-241 (scFv, Vl 135-241); also called single-chain phage antibody SC06-241) scFv: EVQLVESGGGLVQPGRSLRLSCAASGFTFRSYAMYWVRQAPGKGLEWLALISHDASKMFYADSVKGRFTISRDNSKNTLSLQMNSLTIEDTAVYYCVRERTGYYGAYWGQGTLVTVSSGTGGSGGTGSGTGGSTDIQMTQSPSSLSASVGDRVTLTCRASQGIGTWLAWYQQKPGKAPKLLIYSASSLQSGVPSRFSGSGSGTDFTLSISNLQPEDFATYYCQQANSFPITFGQGTRLEIK"
data_value = "no binding"


meta.source: patent US20090169562A1
